- Test system: MCF-7 ER-positive breast cancer
- Test Method Notes: Monolayer assay (DNA content by propidium iodide), single agents and indibulin combinations, MCF-7
- Type: cell-based, human
- Assay Context: Homo sapiens, MCF7, MCF7, single agent (combination study); read-out: Single Agent IC50
Consider the cut-off 1 ng/mL. If the recorded IC50 is strictly smaller, the label is YES; if not, the label is NO.

Mol	Group Label
CC(=O)O[C@H]1C(=O)[C@@]2(C)[C@H]([C@H](OC(=O)c3ccccc3)[C@]3(O)C[C@H](OC(=O)[C@H](O)[C@@H](NC(=O)c4ccccc4)c4ccccc4)C(C)=C1C3(C)C)[C@]1(OC(C)=O)CO[C@@H]1C[C@@H]2O	NO
CCC1=C[C@@H]2CN(C1)Cc1c([nH]c3ccccc13)[C@@](C(=O)OC)(c1cc3c(cc1OC)N(C)[C@H]1[C@@](O)(C(=O)OC)[C@H](OC(C)=O)[C@]4(CC)C=CCN5CC[C@]31[C@@H]54)C2	YES
O=c1[nH]cc(F)c(=O)[nH]1	NO
COc1cccc2c1C(=O)c1c(O)c3c(c(O)c1C2=O)C[C@@](O)(C(=O)CO)C[C@@H]3O[C@H]1C[C@H](N)[C@H](O)[C@H](C)O1	NO
O=C(Nc1ccncc1)C(=O)c1cn(Cc2ccc(Cl)cc2)c2ccccc12	NO
